value-type: melting point

Worked examples, 3 molecules total:
molecule | result
CSc1nnc(C(=O)Nc2ccc(Oc3cccc(C(F)(F)F)c3)cc2)c(O)n1 | 261 to 265 °C
CC(C)C(=O)O[C@H]1[C@H](C)OC(=O)[C@@H](NC(=O)c2cnn(C)c2O)COC(=O)[C@@H]1Cc1ccccc1 | 195 °C (dec.)
COc1ccnc(C(=O)Nc2ccc(Oc3cc(C(F)(F)F)ccn3)cc2)c1O | 169 to 171 °C

// query // returns reported melting point for input COc1ccnc(C(=O)N[C@H]2CO[C@](C)(C(C)CC3=C(C)CCCC3(C)C)OC2)c1O (stereo partly shown)
// result 139 to 140 °C

###

Reported pest or weed control at 100 ppm is given for each of the following compounds.
# System: Septoria tritici—SEPTTR
# measurement-protocol: Leaf Blotch of Wheat, in vivo whole plant, 24 Hour Protectant
# assay-context: Zymoseptoria tritici, 24 h, 100 ppm spray, wheat, 24 hour protectant; control of fungal infection vs untreated plants; read-out: SEPTTR in vivo 1 Day Protectant

Here's what some known entries look like.
compound | pest or weed control at 100 ppm
COC(=O)C(COC(=O)CC(C)OC(=O)C(C)C)NC(=O)c1nccc(OC)c1O (stereo not shown) | < 25%
COc1ccnc(C(=O)N[C@H]2COC(=O)[C@H](Cc3ccccc3)[C@@H](OC(=O)C3CCCC3)[C@H](C)OC2=O)c1O | 25 to 74%
COc1ccnc(C(=O)Nc2ccc(Oc3ccc(C(F)(F)F)cc3)cc2)c1O | 25 to 74%
COc1ccnc(C(=O)N[C@H]2CC(=O)OCC(NC(=O)OC(C)(C)C)COC2=O)c1O (stereo partly shown) | 25 to 74%
COc1ccnc(C(=O)Nc2ccc(Oc3ccc(OC(=O)C(C)C)cc3)cc2)c1O | 25 to 74%
COc1ccnc(C(=O)N[C@H]2COC(=O)[C@H](Cc3ccccc3)[C@@H](OCC(C)C)[C@H](C)OC2=O)c1O | 25 to 74%
COc1ccnc(C(=O)Nc2cccc(OC3CC(C)(C)OC(C)(C)C3)c2)c1O | 25 to 74%
COc1ccnc(C(=O)Nc2ccc(Oc3ccc(Cl)cc3)cc2)c1O | < 25%

Now look at this one.
// query Any idea what pest or weed control at 100 ppm was measured for COc1ccnc(C(=O)NC(COC(=O)C(Cc2ccccc2)C(C)OC(=O)c2ccccc2)C(=O)OC(C)C)c1O (stereo not shown) ?
// result 25 to 74%

###

Quick reference for pest or weed control at 100 ppm among some compounds
# Tested on: Septoria tritici—SEPTTR
# measurement-protocol: Leaf Blotch of Wheat, in vivo whole plant, 24 Hour Protectant
# assay-context: Zymoseptoria tritici, 24 h, 100 ppm spray, 24 hour protectant, wheat; control of fungal infection vs untreated plants; read-out: SEPTTR in vivo 1 Day Protectant

compound | target-of-assay | pest or weed control at 100 ppm
O=C(Nc1ccc(Oc2ccc(C(F)(F)F)cc2)cc1)c1ncccc1O [Compound 217] | Septoria tritici—SEPTTR | < 25%
COc1ccnc(C(=O)NC2CCCC(Sc3ccc(C(F)(F)F)cn3)C2)c1O (stereo not drawn) [Compound 274] | Septoria tritici—SEPTTR | 25 to 74%
COc1ccnc(C(=O)NC2CC(C)(C)CC(C)(C)C2)c1O [Compound 250] | Septoria tritici—SEPTTR | < 25%
COc1ccnc(C(=O)NC2CC(C)(C)C(OC)C(C)(C)C2)c1O (stereo not drawn) [Compound 265] | Septoria tritici—SEPTTR | 25 to 74%
CC(C)C(=O)OC1CCC(NC(=O)c2ncccc2O)CC1 (stereo not drawn) [Compound 210] | Septoria tritici—SEPTTR | 25 to 74%

// query // pest or weed control at 100 ppm lookup, key: COc1ccnc(C(=O)NC2CC(C)(C)CC(C)(C(=O)CCCc3ccccc3)C2)c1O (stereo not drawn) [Compound 276]
// result 25 to 74%

// query What does the record list as pest or weed control at 100 ppm for C[C@H](NC(=O)c1ncccc1O)c1cccc2ccccc12 [Compound 232] ?
// result < 25%

// query Given the entry COc1ccnc(C(=O)NC2CC(C)(C)CC(C)(C3CC3)C2)c1O (stereo not drawn) [Compound 252] , report its measured pest or weed control at 100 ppm.
// result 25 to 74%

// query Which measured pest or weed control at 100 ppm value corresponds to Cc1ccnc(C(=O)Nc2ccc(Oc3cccc(C(F)(F)F)c3)cc2)c1O [Compound 238] ?
// result < 25%

###

Entries and their melting point values follow.

Please review the entries below; each comes with its answer.
compound | result
COc1ccnc(C(=O)Nc2cccc(C(=O)Nc3ccc(C(F)(F)F)cc3)c2)c1O [Compound 450] | > 260 °C
CC(C)C(=O)O[C@H]1[C@H](C)OC(=O)[C@@H](NC(=O)c2cc(O)cnc2O)COC(=O)[C@@H]1Cc1ccccc1 [Compound 527] | 120 to 130 °C
CC(C)C(=O)O[C@H]1[C@H](C)OC(=O)[C@@H](NC(=O)c2cn(C)nc2O)COC(=O)[C@@H]1Cc1ccccc1 [Compound 558] | 199 to 205 °C
COc1ccnc(C(=O)Nc2ccc(Oc3ccc(OC(=O)C(C)C)cc3)cc2)c1O [Compound 436] | 109 to 110.5 °C
COc1ccnc(C(=O)N[C@H]2COC(=O)[C@H](Cc3ccccc3)[C@@H](OC(=O)c3ccccc3)[C@H](C)OC2=O)c1O [Compound 394] | 181 to 185 °C

// query Looking for the measured melting point of CC(C)(C)CNC(=O)c1cccnc1O [Compound 514] , can you help?
// result 180 to 181 °C

// query I have this compound here, CC1(C)CC(NC(=O)c2cn(-c3ccccc3)nc2O)CC(C)(C)C1 [Compound 559] , and I need its recorded melting point.
// result 215 to 217 °C

// query State the recorded melting point for this entry: COc1ccnc(C(=O)N[C@H]2COC(=O)[C@H](Cc3ccccc3)[C@@H](OC(=O)C(C)C)[C@H](C)OC2=O)c1OC(=O)C1CC1 [Compound 601]
// result 195 to 196 °C

// query Data request, read-out melting point, for CC(C)C(=O)O[C@H]1[C@H](C)OC(=O)[C@@H](NC(=O)c2nc(Cl)c(Cl)nc2O)COC(=O)[C@@H]1Cc1ccccc1 [Compound 538]
// result 108 to 110 °C

// query melting point lookup needed for COc1ccnc(C(=O)N[C@H]2COC(=O)[C@H](CC3CCCC3)[C@@H](OC(=O)C(C)C)[C@H](C)OC2=O)c1O [Compound 402] , thanks.
// result 182 to 184 °C

// query Consider the compound shown here: CC(C)C(=O)OC1CCC(NC(=O)c2ncccc2O)CC1 (stereo not drawn) [Compound 210] What is its recorded melting point?
// result 139 to 142 °C

// query Can you look up the measured melting point of COc1ccnc(C(=O)NC2CC(C)(C)CC(C)(C(=O)c3ccccc3)C2)c1O (stereo not drawn) [Compound 260] for me?
// result 147 to 149 °C

###

value-type: melting point

Worked set:
compound | result
COc1ccnc(C(=O)N[C@H]2COC(=O)[C@H](Cc3ccccc3)[C@@H](OC(C)=O)[C@H](C)OC2=O)c1O [Compound 385] | 194 to 196 °C
CC(C)C(=O)O[C@H]1[C@H](C)OC(=O)[C@@H](NC(=O)c2nc3ccccc3cc2O)COC(=O)[C@@H]1Cc1ccccc1 [Compound 562] | 163 to 165 °C
CC(C)C(=O)O[C@H]1[C@H](C)OC(=O)[C@@H](NC(=O)c2cncnc2O)COC(=O)[C@@H]1Cc1ccccc1 [Compound 540] | 195 °C (dec.)
CCCC(=O)Oc1c(OC)ccnc1C(=O)N[C@H]1COC(=O)[C@H](Cc2ccccc2)[C@@H](OC(=O)C(C)C)[C@H](C)OC1=O [Compound 599] | 162 to 163 °C
COc1ccnc(C(=O)NC2CCN(Cc3ccc(C)cc3)CC2)c1O [Compound 306] | 150 to 152 °C

Query compound follows.
// query Give its melting point value. Item: COc1ccnc(C(=O)N[C@H]2CC[C@@H](Oc3ccc(C(F)(F)F)cc3)CC2)c1O [Compound 271]
// result 181 to 183 °C (dec.)

###

# pest or weed control at 100 ppm per record follows
# Tested on: Leptosphaeria nodorum—LEPTNO
# measurement-protocol: Glume Blotch of Wheat, in vivo whole plant, 24 Hour Protectant
# assay-context: Leptosphaeria; 100 ppm spray, 24 hour protectant, wheat; control of fungal infection vs untreated plants; read-out: LEPTNO in vivo 1 Day Protectant

Answered examples (2):
compound | result
COc1ccnc(C(=O)NC2CC(C)(C)C(OC(=O)c3cccc(Cl)n3)C(C)(C)C2)c1O (stereo not drawn) | < 25%
O=C(Nc1ccc(Cl)cc1)c1ncccc1O | < 25%

// query // lookup pest or weed control at 100 ppm | system=Leptosphaeria nodorum—LEPTNO | key= COc1ccnc(C(=O)NC2CC(C)(C)CC(C)(C3CC3)C2)c1O (stereo not drawn)
// result 25 to 74%

// query Requested read-out pest or weed control at 100 ppm, target or system Leptosphaeria nodorum—LEPTNO, entry CC(NC(=O)c1ncccc1O)c1ccc(Cl)cc1 (stereo not drawn)
// result 25 to 74%

// query Checklist item: pest or weed control at 100 ppm tested on Leptosphaeria nodorum—LEPTNO, entry "COc1ccnc(C(=O)NCC(C)(C)Sc2ncc(C(F)(F)F)cc2Cl)c1O" , value?
// result 25 to 74%

// query Reported pest or weed control at 100 ppm for Leptosphaeria nodorum—LEPTNO, given COc1ccnc(C(=O)NC2C[C@H](C)O[C@@](C)(Cc3ccccc3)C2)c1O (stereo partly drawn) ?
// result 25 to 74%

// query Form field: pest or weed control at 100 ppm recorded for "O=C(NCC1CCCCC1)c1ncccc1O" with Leptosphaeria nodorum—LEPTNO (enter value)
// result < 25%

// query Quick check: pest or weed control at 100 ppm on Leptosphaeria nodorum—LEPTNO, item COc1ccnc(C(=O)N[C@@H]2CC3CC2[C@H]2COC[C@@H]32)c1O (stereo partly drawn) ?
// result 25 to 74%

// query Test system Leptosphaeria nodorum—LEPTNO; read-out pest or weed control at 100 ppm; what value for "O=C(Nc1cccc(C(F)(F)F)c1)c1ncccc1O" ?
// result < 25%
